Experiment: Solubility measurements in PBS (pH 7.4), filtration, HPLC-UV
Assay type: physicochemical
Settings: PBS (pH 7.4) with 1% DMSO, aqueous buffer, kinetic from dmso stock, PBS pH 7.4, 100 μM test substance, room temperature
measurement_type: solubility at 24 h (µM)

[A] CC(C)(O)C(=O)N1CCN(Cc2ccc(-c3cc4nccc(Oc5ccc(NC(=O)NC6CC6)cc5F)c4s3)nc2)CC1 [Compound 35-A]
[B] C[C@H](O)CN1CCN(Cc2ccc(-c3cc4nccc(Oc5ccc(NC(=O)NC6CC6)cc5F)c4s3)nc2)CC1 [Compound 30]
Task: Field: lower recorded solubility at 24 h (choose A or B ) Output the label that corresponds to your choice.
Output: A
